- system-under-test: human GLP-1 receptor (human, UniProt P43220 24-463)
- Sequence (P43220 24-463): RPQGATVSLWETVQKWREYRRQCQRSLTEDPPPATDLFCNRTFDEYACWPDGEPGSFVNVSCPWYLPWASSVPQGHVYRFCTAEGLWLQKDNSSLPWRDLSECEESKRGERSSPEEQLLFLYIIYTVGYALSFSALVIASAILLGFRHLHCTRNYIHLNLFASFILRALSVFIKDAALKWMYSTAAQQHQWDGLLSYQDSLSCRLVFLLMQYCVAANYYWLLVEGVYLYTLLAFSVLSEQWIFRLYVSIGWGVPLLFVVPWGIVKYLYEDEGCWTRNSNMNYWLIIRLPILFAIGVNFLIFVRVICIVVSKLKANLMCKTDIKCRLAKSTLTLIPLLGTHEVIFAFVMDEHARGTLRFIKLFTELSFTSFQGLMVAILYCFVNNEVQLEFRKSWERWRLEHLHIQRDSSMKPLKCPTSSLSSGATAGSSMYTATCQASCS
- experiment-description: cell-based or functional assay
Where no end group is shown, it is not given here.
readout-type: EC50 (potency, stimulation of cAMP formation)

The cases that follow already have their EC50 (potency, stimulation of cAMP formation) on record.
HAEGTFTSDVSSYLEEQAVREFIAWLV-NH2 [[Glu22, Val25, Arg26] GLP-1 (7-33)amide]
< 0.3 nM
HAEGTFTSDVSSYLEEQAAREFIAWLV-NH2 [[Glu22, Arg26]GLP-1 (7-33) Amide]
< 0.3 nM
HAEGTFTSDVSSYLEEQAAREFIAWLV-OH [[Glu22, Arg26]GLP-1(7-33)peptide]
< 0.3 nM

Lab note: next binder to report on.
The measured EC50 (potency, stimulation of cAMP formation) associated with HAEGTFTSDVSSYLEGQAAKEFIAWLV (ends and bridges not checked, also called truncated natural GLP-1; truncated natural GLP-1(7-3)) peptide) [truncated natural, human GLP-1(7-33)] reads 11.3 nM
